method.summary: Stability rating of phenothiazine derivatives (Table 2 compilation)
Format: physicochemical
measured.property: Stability

Known results for compounds:
| compound | Stability |
| --- | --- |
| CCN1c2ccccc2Sc2ccccc21 [EPT] | High |
| CCN1c2ccc(C(F)(F)C(F)(F)F)cc2Sc2cc(C(F)(F)C(F)(F)F)ccc21 [BCF3CF2EPT] | High |
| CCN1c2ccc(Br)cc2Sc2cc(Br)ccc21 [DBrEPT] | high |
| CCN1c2ccc(C(F)(F)F)cc2Sc2cc(C(F)(F)F)ccc21 [BCF3EPT] | high |
| CCN1c2ccc(C#N)cc2Sc2cc(C#N)ccc21 [DCNEPT] | high |

For the compound shown here, c1ccc2c(c1)Nc1ccccc1S2 [PT] , give the reported Stability.
Low

For the compound shown here, CN1c2ccccc2Sc2ccccc21 [MPT] , give the reported Stability.
high

For the compound shown here, CCN1c2ccc(C#N)cc2Sc2cc(C#N)ccc21 [BCF3(4-CF3C6H4)PT] , give the reported Stability.
High

For the compound shown here, CCN1c2ccc(Cl)cc2Sc2cc(Cl)ccc21 [DClEPT] , give the reported Stability.
High
